test system: HCV replicon in Huh7 cells; assay: microbe, parasite or virus in culture; format: cell-based, strain 1b; conditions: Hepatitis C virus, Huh-7, 96 h; Huh7 cells expressing HCV replicon, 4 days; activity range class
pEC50: −log10 of the molar value.
Below: a set of entries, each annotated with reported pEC50.

- Molecule: "C=C[C@@H]1C[C@]1(NC(=O)[C@@H]1C[C@@H](Oc2nccc3cc(OC)ccc23)CN1C(=O)[C@@H](NC(=O)OC(C)(C)C)C(C)(C)C)C(=O)NS(=O)(=O)C1(C)CC1 [Cmpd 301]"
  Target system: "HCV replicon in Huh7 cells"
  Value: "> 7.00"
- Molecule: "C=C[C@@H]1C[C@]1(NC(=O)[C@@H]1C[C@@H](Oc2nccc3c(Cl)c(OC)ccc23)CN1C(=O)[C@@H](NC(=O)OC(C)(C)C)C(C)(C)C)C(=O)NS(=O)(=O)C1(CC)CC1 [Cpd 105]"
  Target system: "HCV replicon in Huh7 cells"
  Value: "> 7.00"

Attention now turns to another entry.
Indicate the recorded pEC50 value for this molecule: C=C[C@@H]1C[C@]1(NC(=O)[C@@H]1C[C@@H](Oc2cc(-c3ccccc3)nc3c(C)noc23)CN1C(=O)[C@@H](NC(=O)OC(C)(C)C)C(C)(C)C)C(=O)NS(=O)(=O)C1(CCC)CC1 [Cmpd 501]
6.00 to 7.00

---

target: HCV NS3/4A protease complex (BMS strain) (UniProt P27958, C1454S/C1711G, species not given); construct: for H77 and J4L6S; fused on or other part: Three-lysine solubilising tail at the C-terminus of NS4A; assay: Recombinant HCV NS3/4A protease complex FRET peptide assay; assay type: biochemical, Hepatitis C virus (HCV), genotype 1a; settings: NS3/4A BMS strain; activity range class; read-out: IC50
The following compounds are listed with their measured IC50 values.

Here is how some compounds turned out for IC50.
- Compound: "C=C[C@@H]1C[C@]1(NC(=O)[C@@H]1C[C@@H](Oc2ncc(Cl)c3cc(OC)ccc23)CN1C(=O)[C@@H](NC(=O)OC(C)(C)C)C(C)(C)C)C(=O)NS(=O)(=O)C1(CC)CC1"
  IC50: "< 100 nM"
- Compound: "C=C[C@@H]1C[C@]1(NC(=O)[C@@H]1C[C@@H](Oc2nc(-c3ccccc3)nc3ccccc23)CN1C(=O)[C@@H](NC(=O)OC(C)(C)C)C(C)(C)C)C(=O)NS(=O)(=O)C1(Cc2ccccc2)CC1"
  IC50: "< 100 nM"

Give the reported value of IC50 for this record: C=C[C@@H]1C[C@]1(NC(=O)[C@@H]1CC(Oc2ccnc(-c3cccs3)c2)CN1C(=O)[C@@H](NC(=O)OC1CCCC1)C(C)(C)C)C(=O)NS(=O)(=O)C1(CC2CC2)CC1 (some centres unmarked)
< 100 nM

State its IC50 for this compound: C=C[C@@H]1C[C@]1(NC(=O)[C@@H]1C[C@@H](Oc2nccc3ccccc23)CN1C(=O)[C@@H](NC(=O)CCOC)C(C)(C)C)C(=O)NS(=O)(=O)C1(Cc2ccccc2)CC1
1000 to 10000 nM

---

target: HCV NS3/4A protease complex (BMS strain) (UniProt P27958, C1454S/C1711G, species not given); construct: for H77 and J4L6S; fused on or other part: Three-lysine solubilising tail at the C-terminus of NS4A; assay: Recombinant HCV NS3/4A protease complex FRET peptide assay; assay type: biochemical, Hepatitis C virus (HCV), genotype 1a; details: NS3/4A BMS strain; activity range class; read-out: IC50
pIC50: −log10 of the molar value.
Readout type: pIC50

Note down pIC50 recorded for C=C[C@@H]1C[C@]1(NC(=O)[C@@H]1C[C@@H](Oc2nccc3ccccc23)CN1C(=O)[C@@H](NC(=O)OCCOC)C(C)(C)C)C(=O)NS(=O)(=O)C1(Cc2ccccc2)CC1
5.00 to 6.00

State, in one line, measured pIC50 of C=C[C@@H]1C[C@]1(NC(=O)[C@@H]1C[C@@H](Oc2nccc3cc(OC)ccc23)CN1C(=O)[C@@H](NC(=O)OC(C)(C)C)C(C)(C)C)C(=O)NS(=O)(=O)C1(CCC)CC1
> 7.00

Give the reported value of pIC50 for this record: C=C[C@@H]1C[C@]1(NC(=O)[C@@H]1C[C@@H](Oc2nccc3cc(OC)ccc23)CN1C(=O)[C@@H](NC(=O)OC(C)(C)C)C(C)(C)C)C(=O)NS(=O)(=O)C1(Cc2ccccc2)CC1
6.00 to 7.00

Check the records and state pIC50 for C=C[C@@H]1C[C@]1(NC(=O)[C@@H]1C[C@@H](Oc2nc(-c3ccccc3)nc3ccccc23)CN1C(=O)[C@@H](NC(=O)c1cnccn1)C(C)(C)C)C(=O)NS(=O)(=O)C1(CC2CC2)CC1
6.00 to 7.00

Check the records and state pIC50 for C=C[C@@H]1C[C@]1(NC(=O)[C@@H]1C[C@@H](Oc2nccc3cc(OC)ccc23)CN1C(=O)[C@@H](NC(=O)OC(C)(C)C)C(C)(C)C)C(=O)NS(=O)(=O)C1(C)CC1
> 7.00

Return the recorded pIC50 value; entry: C=C[C@@H]1C[C@]1(NC(=O)[C@@H]1C[C@@H](Oc2nccc3ccccc23)CN1C(=O)[C@@H](NC(=O)Oc1ccc(C)cc1)C(C)(C)C)C(=O)NS(=O)(=O)C1(Cc2ccccc2)CC1
5.00 to 6.00

Name the recorded pIC50 of the compound listed here: C=C[C@@H]1C[C@]1(NC(=O)[C@@H]1CC(Oc2ccnc(-c3cccs3)c2)CN1C(=O)[C@@H](NC(=O)OC1CCCC1)C(C)(C)C)C(=O)NS(=O)(=O)C1(Cc2ccccc2)CC1 (stereo partly shown)
> 7.00

Consider the compound C=C[C@@H]1C[C@]1(NC(=O)[C@@H]1C[C@@H](Oc2nccc3ccccc23)CN1C(=O)[C@@H](NC(=O)COC)C(C)(C)C)C(=O)NS(=O)(=O)C1(Cc2ccccc2)CC1 and give its recorded pIC50.
5.00 to 6.00

Give pIC50 for C=C[C@@H]1C[C@]1(NC(=O)[C@@H]1C[C@@H](Oc2nccc3c(OC)c(Cl)ccc23)CN1C(=O)[C@@H](NC(=O)OC(C)(C)C)C(C)(C)C)C(=O)NS(=O)(=O)C1(CC)CC1
> 7.00

For the compound C=C[C@@H]1C[C@]1(NC(=O)[C@@H]1C[C@@H](Oc2nccc3ccccc23)CN1C(=O)[C@@H](NC(=O)[C@@H]1COc2ccccc2O1)C(C)(C)C)C(=O)NS(=O)(=O)C1(Cc2ccccc2)CC1 , give its reported pIC50.
4.00 to 5.00

---

Overview of recorded IC50 for various compounds
target: HCV NS3/4A protease complex (BMS strain) (UniProt P27958, C1454S/C1711G, species not given); construct: for H77 and J4L6S; fused on or other part: Three-lysine solubilising tail at the C-terminus of NS4A; assay: Recombinant HCV NS3/4A protease complex FRET peptide assay; type: biochemical, Hepatitis C virus (HCV), genotype 1a; details: NS3/4A BMS strain; activity range class; read-out: IC50

Previously resolved entries follow.
- Structure: "C=C[C@@H]1C[C@]1(NC(=O)[C@@H]1C[C@@H](Oc2nccc3cc(OC)ccc23)CN1C(=O)[C@@H](NC(=O)NC(C)(C)CC)C(C)(C)C)C(=O)NS(=O)(=O)C1(C)CC1"
  Readout type: "IC50"
  Value: "< 0.1 µM"
- Structure: "C=C[C@@H]1C[C@]1(NC(=O)[C@@H]1C[C@@H](Oc2cc(-c3ccccc3)nc3c(C)noc23)CN1C(=O)[C@@H](NC(=O)OC(C)(C)C)C(C)(C)C)C(=O)NS(=O)(=O)C1(Cc2ccccc2)CC1"
  Readout type: "IC50"
  Value: "< 0.1 µM"
- Structure: "C=C[C@@H]1C[C@]1(NC(=O)[C@@H]1C[C@@H](Oc2nccc3ccccc23)CN1C(=O)[C@@H](NC(=O)Oc1ccc(F)cc1)C(C)(C)C)C(=O)NS(=O)(=O)C1(Cc2ccccc2)CC1"
  Readout type: "IC50"
  Value: "1 to 10 µM"

Please give measured IC50 of the following entry: C=C[C@@H]1C[C@]1(NC(=O)[C@@H]1C[C@@H](Oc2cc3c(Cl)nccc3cc2OC)CN1C(=O)[C@@H](NC(=O)OC(C)(C)C)C(C)(C)C)C(=O)NS(=O)(=O)C1(CC)CC1
< 0.1 µM

Values compiled from patent US7135462B2.
